These entries and their values trace back to patent US9511134B2.

Target: DRB1*0401 (Homo sapiens, UniProt P01903+P01911, A100K/A169T/F76Y/I96L/K127E/L162R/M171V/N62H/P40V/Q125Y/R42H/S133A/S149N/S66Y/V115G/V209L/W38E)
Construct: made in house; host or cells: EBV-transformed homozygous human B cell lines, transfected fibroblasts or single-allele 721.221 transfectants
Test: biochemical
Type: binding
Settings: Table 4; read-out: IC50 nM to purified HLA DRB1*0401
The compounds listed here are annotated with their IC50.

given.smiles	IC50 / nM
CC[C@H](C)[C@H](N)C(=O)N[C@@H](Cc1ccc(O)cc1)C(=O)N[C@@H](CCC(N)=O)C(=O)N[C@H](C(=O)N[C@@H](CC(C)C)C(=O)N[C@@H](CO)C(=O)N[C@H](C(=O)N[C@@H](Cc1ccc(O)cc1)C(=O)N[C@@H](CO)C(=O)N[C@H](C(=O)N[C@H](C(=O)N[C@@H](C)C(=O)N[C@@H](CO)C(=O)N[C@@H](CO)C(=O)N[C@@H](CC(C)C)C(=O)N[C@@H](C)C(=O)O)C(C)C)[C@@H](C)O)[C@@H](C)CC)[C@@H](C)CC	89
CC[C@H](C)[C@H](NC(=O)[C@@H](N)Cc1ccc(O)cc1)C(=O)N[C@@H](CCC(N)=O)C(=O)N[C@@H](CCSC)C(=O)N[C@@H](CS)C(=O)N[C@H](C(=O)N[C@@H](CCC(=O)O)C(=O)N[C@@H](CC(C)C)C(=O)N[C@@H](CCCCN)C(=O)N[C@@H](CC(C)C)C(=O)N[C@@H](CO)C(=O)N[C@@H](CC(=O)O)C(=O)N[C@@H](Cc1ccc(O)cc1)C(=O)N[C@@H](CCC(=O)O)C(=O)NCC(=O)O)[C@@H](C)O	392
CC[C@H](C)[C@H](N)C(=O)N[C@@H](CC(C)C)C(=O)N[C@@H](CO)C(=O)N[C@H](C(=O)N[C@@H](Cc1ccc(O)cc1)C(=O)N[C@@H](CO)C(=O)N[C@H](C(=O)N[C@H](C(=O)N[C@@H](C)C(=O)N[C@@H](CO)C(=O)N[C@@H](CO)C(=O)N[C@@H](CC(C)C)C(=O)N[C@@H](C)C(=O)N[C@@H](CC(C)C)C(=O)N[C@@H](C)C(=O)N[C@H](C(=O)O)[C@@H](C)CC)C(C)C)[C@@H](C)O)[C@@H](C)CC	91

---

Target: DRB1*1501 (Homo sapiens, UniProt P01903+P01911)
Construct: made in house; host or cells: EBV-transformed homozygous human B cell lines, transfected fibroblasts or single-allele 721.221 transfectants
Assay: biochemical
Assay type: binding
Conditions: read-out: IC50 nM to purified HLA DRB1*1501
Listing of entries alongside the reported IC50.

compound	IC50
CC[C@H](C)[C@H](NC(=O)[C@@H](N)CC(=O)O)C(=O)N[C@@H](CC(C)C)C(=O)N[C@@H](CCSC)C(=O)N[C@@H](CCCNC(=N)N)C(=O)N[C@@H](CCSC)C(=O)N[C@@H](CO)C(=O)N[C@@H](CCCCN)C(=O)N[C@@H](CCSC)C(=O)N[C@@H](CCC(N)=O)C(=O)N[C@@H](CC(C)C)C(=O)NCC(=O)N[C@@H](CO)C(=O)N[C@@H](CO)C(=O)N[C@@H](CO)C(=O)O [Flu.NS2.87]	748 nM
CC[C@H](C)[C@H](NC(=O)[C@@H]1CCCN1C(=O)[C@H](CCCNC(=N)N)NC(=O)[C@@H](NC(=O)[C@H](CCCCN)NC(=O)[C@H](CC(C)C)NC(=O)[C@H](Cc1c[nH]c2ccccc12)NC(=O)[C@H](CCC(=O)O)NC(=O)[C@H](CCSC)NC(=O)[C@H](CC(C)C)NC(=O)[C@H](C)NC(=O)[C@@H](N)CCC(=O)O)[C@@H](C)O)C(=O)N[C@@H](CC(C)C)C(=O)N[C@@H](CO)C(=O)N1CCC[C@H]1C(=O)O [Flu.M1.43]	18 nM
CC[C@H](C)[C@H](NC(=O)[C@H](Cc1ccc(O)cc1)NC(=O)[C@@H](NC(=O)[C@@H](NC(=O)[C@@H]1CCCN1C(=O)[C@H](CC(N)=O)NC(=O)[C@H](CCC(N)=O)NC(=O)[C@H](Cc1ccc(O)cc1)NC(=O)[C@H](CC(C)C)NC(=O)[C@H](CCCCN)NC(=O)[C@@H](NC(=O)[C@@H](N)CCC(N)=O)[C@@H](C)O)[C@@H](C)O)[C@@H](C)O)C(=O)N[C@@H](CO)C(=O)N[C@H](C(=O)NCC(=O)N[C@H](C(=O)O)[C@@H](C)O)C(C)C [Flu.HA.203]	60 nM
